Molecular target: 6xHis-AtSUMO1-eGFP

{"columns": ["PROTEIN", "activity level (grade)"],
 "data": [
  ["human SENP2 (hSENP2) SUMO protease catalytic domain (protein) MASLLELTEDMEKEISNALGHGPQDEILSSAFKLRITRGDIQTLKNYHWLNDEVINFYMNLLVERNKKQGYPALHVFSTFFYPKLKSGGYQAVKRWTKGVNLFEQEIILVPIHRKVHWSLVVIDLRKKCLKYLDSMGQKGHRICEILLQYLQDESKTKRNSDLNLLEWTHHSMKPHEIPQQLNGSDCGMFTCKYADYISRDKPITFTQHQMPLFRKKMVWEILHQQLLAAALEHHHHHH", "+"]
]}
